Recorded pIC50, one value per entry.
- Test system: Phospho-ERK1/2(THR202/TYR204) in NCI-H358 cells express KRAS G12C
- Method Description: Phospho-ERK1/2(THR202/TYR204) HTRF assay
- Format: cell-based
- Condition: Homo sapiens; NCI-H358, 2 hours incubation; read-out: p-ERK inhibition in NCI-H358 IC50
pIC50: −log10 of the molar value.
Endpoint Label: pIC50

1) C=CC(=O)N1CCN(c2nc(OCC3(CN4CCCC4)CC3)nc3c2CCN(c2cccc(Cl)c2C(F)(F)F)C3)CC1CC#N (stereo not drawn) ... 7.18
2) C=CC(=O)N1CCN(c2nc(OCC3(C(=O)N4CCN(C)CC4)CC3)nc3c2CCN(c2cccc4cccc(C)c24)C3)CC1CC#N (stereo not drawn) ... 6.27
3) C=CC(=O)N1CCN(c2nc(OCC3(CN4CCCC4)CC3)nc3c2CCN(c2cccc(F)c2C(F)(F)F)C3)CC1CC#N (stereo not drawn) ... 7.26

----------
- Subject Of Test: KRAS G12C (Homo sapiens, UniProt P01116, G12C)
- Construct: HIS-KRAS (G12C, aa 2-185, Sino biological)
- Sequence (P01116 2-185 isoform P01116-2 G12C): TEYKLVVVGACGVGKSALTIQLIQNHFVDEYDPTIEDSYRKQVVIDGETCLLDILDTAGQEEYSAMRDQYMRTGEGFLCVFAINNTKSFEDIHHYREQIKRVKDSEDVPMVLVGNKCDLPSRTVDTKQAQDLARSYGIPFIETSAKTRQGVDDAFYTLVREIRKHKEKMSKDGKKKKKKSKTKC
- Method Description: SOS1 catalyzed nucleotide exchange assay (TR-FRET)
- Condition: GDP-loaded HIS-KRAS(G12C), 1 hour pre-incubation with compound
Endpoint Label: log10 of IC50 (log10 of the value in nM)

1. C/C=C/C(=O)N1CCN(c2nc(OCC3(CN(C)C)CC3)nc3c2CCN(c2cccc(C)c2C)C3)CC1CC#N (stereo not shown) ... 2.32
2. C=CC(=O)N1CCN(c2nc(OCC3(CN4CCCC4)CC3)nc3c2CCN(c2cccc4cccc(C)c24)C3)CC1CC#N (stereo not shown) ... 0.50
3. C=CC(=O)N1CCN(c2nc(OCC3CCCC3N(C)C)nc3c2CCN(c2ccccc2C(F)(F)F)C3)CC1CC#N (stereo not shown) ... 1.93
4. C=CC(=O)N1CCN(c2nc(OCC3(CN4CCN(C(C)=O)CC4)CC3)nc3c2CCN(c2cccc4cccc(C)c24)C3)CC1CC#N (stereo not shown) ... 0.16
5. C=CC(=O)N1CCN(c2nc(OCC3(CN(C)C)CC3)nc3c2CCN(c2cccc(C)c2C)C3)CC1CC#N (stereo not shown) ... 0.52
6. C=CC(=O)N1CCN(c2nc(OCC3(CN(C)C)CC3)nc3c2CCN(c2cccc4ccsc24)C3)CC1CC#N (stereo not shown) ... 0.94
7. C=CC(=O)N1CCN(c2nc(OCC3(CN(C)C)CC3)nc3c2CCN(c2cccc4cccc(C)c24)C3)CC1CC#N (stereo not shown) ... 0.06

----------
- Test system: Phospho-ERK1/2(THR202/TYR204) in NCI-H358 cells express KRAS G12C
- Method Description: Phospho-ERK1/2(THR202/TYR204) HTRF assay
- Type: cell-based
- Condition: Homo sapiens; NCI-H358, 2 hours incubation; read-out: p-ERK inhibition in NCI-H358 IC50
Label label 1 when IC50 < 80 nM; otherwise label 0.

1) C=CC(=O)N1CCN(c2nc(OCC3(CN(C)C)CC3)nc3c2CCN(c2cccc4c2OCC4)C3)CC1CC#N (stereo not shown) ... label 0
2) C=CC(=O)N1CCN(c2nc(OCC3(CN(C)C)CC3)nc3c2CCN(c2cccc4sccc24)C3)CC1CC#N (stereo not shown) ... label 1
3) C=CC(=O)N1CCN(c2nc(OCC3CCC(N(C)C)C3)nc3c2CCN(c2cccc4cccc(C)c24)C3)CC1CC#N (stereo not shown) ... label 0
4) C=CC(=O)N1CCN(c2nc(OCC3(CN4CC(N(C)C)C4)CC3)nc3c2CCN(c2cccc4cccc(C)c24)C3)CC1CC#N (stereo not shown) ... label 1
5) C=CC(=O)N1CCN(c2nc(OCCC3CCCC3N(C)C)nc3c2CCN(c2cccc4ccccc24)C3)CC1CC#N (stereo not shown) ... label 0
6) C=CC(=O)N1CCN(c2nc(OCC3(CN4CCCC4)CC3)nc3c2CCN(c2cccc4cccc(C)c24)C3)CC1CC#N (stereo not shown) ... label 1
7) C=CC(=O)N1CCN(c2nc(OC3CCCC(N(C)C)C3)nc3c2CCN(c2cccc4ccccc24)C3)CC1CC#N (stereo not shown) ... label 0
